# Test system: U251 CNS
# experiment.notes: NCI-60 one-dose screen, 48 h
# measurement.setup: 10 µM unless noted
About 83,000 compounds went through this panel and 20% of them were active in at least one assay; those are over-represented in the sample as a whole. Calls of active or inactive are those of the source. The calls were made as follows: active = growth percent below 10; inactive = the rest.
I would appreciate it if you answered using one of these outcomes: yes (1) (active), no (0) (inactive)

Example results:
• Cc1ccc2sc3c(c2c1)OC(N)=C(C#N)C3c1ccc(Cl)cc1 (centres undefined) = no (0)
• CC(Nc1c(C#N)cnc2ccc(-c3cnc(N)nc3)cc12)c1ccccc1 (centres undefined) = no (0)
• COc1ccc([C@H]2[C@H](O)C(=O)N2c2cc(OC)c(OC)c(OC)c2)cc1F = yes (1)

Would you mind telling me which call this test gave `C=CC(=O)N1CCC=C(c2cc3c(N[C@H](C)c4ccccc4)ncnc3[nH]2)C1` ?
no (0)
